Target: HLA-A*02:01
Test: IEDB peptide-MHC binding, purified MHC/competitive/fluorescence; filed as Kd, often an IC50 or EC50 that approximates it; bounds were set here for any values at or beyond the usual limits of such assays
Details: source organism: Vibrio cholerae 2740-80
pKd: −log10 of the molar value.
endpoint-label: pKd

Form field pKd, entry "YEPEMQAQV" : ≤ 4.70

###

Target: HLA-A*03:01
Test: IEDB peptide-MHC binding, purified MHC/direct/fluorescence; filed as Kd, often an IC50 or EC50 that approximates it; bounds were set here for any values at or beyond the usual limits of such assays
Conditions: source organism: Burkholderia mallei ATCC 23344
endpoint-label: Kd

// "NVMDPMHGA" : Kd value = ≥ 20 µM
